System: L1210, CEM and HeLa cell lines
Assay: Cytostatic activity, average or summary over L1210, CEM and HeLa
Type: cell-based
Conditions: average of L1210, CEM and HeLa; read-out: Toxicity (IC50) Average
pIC50: −log10 of the molar value.
Overview of recorded pIC50 for various molecules

| molecule | measurement_target | pIC50 |
| --- | --- | --- |
| CN[C@H](CC(C)C)C(=O)N[C@H]1C(=O)N[C@@H](CC(N)=O)C(=O)N[C@H]2C(=O)N[C@H]3C(=O)N[C@H](C(=O)N[C@H](C(=O)NCC(=O)Nc4ccc(Cl)cc4)c4cc(O)cc(O)c4-c4cc3ccc4O)[C@H](O)c3ccc(c(Cl)c3)Oc3cc2cc(c3O[C@@H]2O[C@H](CO)[C@@H](O)[C@H](O)[C@H]2O[C@H]2C[C@](C)(N)[C@H](O)[C@H](C)O2)Oc2ccc(cc2Cl)[C@H]1O | L1210, CEM and HeLa cell lines | 3.78 |
| CNC(CC(C)C)C(=O)NC1C(=O)NC(CC(N)=O)C(=O)NC2C(=O)NC3C(=O)NC(C(=O)NC(C(=O)NCC(=O)Nc4ccc(-c5ccc(Cl)cc5)cc4)c4cc(O)cc(O)c4-c4cc3ccc4O)C(O)c3ccc(c(Cl)c3)Oc3cc2cc(c3OC2OC(CO)C(O)C(O)C2OC2CC(C)(N)C(O)C(C)O2)Oc2ccc(cc2Cl)C1O (centres unmarked) | L1210, CEM and HeLa cell lines | 5.30 |
| CNC(CC(C)C)C(=O)NC1C(=O)NC(CC(N)=O)C(=O)NC2C(=O)NC3C(=O)NC(C(=O)NC(C(=O)NCCCNC(=O)c4ccc5cc(NS(=O)(=O)c6ccc(C(C)C)cc6)ccc5c4)c4cc(O)cc(O)c4-c4cc3ccc4O)C(O)c3ccc(c(Cl)c3)Oc3cc2cc(c3OC2OC(CO)C(O)C(O)C2OC2CC(C)(N)C(O)C(C)O2)Oc2ccc(cc2Cl)C1O (centres unmarked) | L1210, CEM and HeLa cell lines | 3.72 |
| CN[C@H](CC(C)C)C(=O)N[C@H]1C(=O)N[C@@H](CC(N)=O)C(=O)N[C@H]2C(=O)N[C@H]3C(=O)N[C@H](C(=O)N[C@H](C(=O)NCC(=O)Nc4ccc(C)cc4Cl)c4cc(O)cc(O)c4-c4cc3ccc4O)[C@H](O)c3ccc(c(Cl)c3)Oc3cc2cc(c3O[C@@H]2O[C@H](CO)[C@@H](O)[C@H](O)[C@H]2O[C@H]2C[C@](C)(N)[C@H](O)[C@H](C)O2)Oc2ccc(cc2Cl)[C@H]1O | L1210, CEM and HeLa cell lines | 3.66 |
| CCCCCCn1cc(-c2ccc(NC(=O)CNC(=O)C3NC(=O)C4NC(=O)C(NC(=O)C5NC(=O)C(CC(N)=O)NC(=O)C(NC(=O)C(CC(C)C)NC)C(O)c6ccc(c(Cl)c6)Oc6cc5cc(c6OC5OC(CO)C(O)C(O)C5OC5CC(C)(N)C(O)C(C)O5)Oc5ccc(cc5Cl)C4O)c4ccc(O)c(c4)-c4c(O)cc(O)cc43)cc2)nn1 (centres unmarked) | L1210, CEM and HeLa cell lines | 4.12 |
| CNC(CC(C)C)C(=O)NC1C(=O)NC(CC(N)=O)C(=O)NC2C(=O)NC3C(=O)NC(C(=O)NC(C(=O)NCCNC(=O)C4c5ccccc5-c5ccccc54)c4cc(O)cc(O)c4-c4cc3ccc4O)C(O)c3ccc(c(Cl)c3)Oc3cc2cc(c3OC2OC(CO)C(O)C(O)C2OC2CC(C)(N)C(O)C(C)O2)Oc2ccc(cc2Cl)C1O (centres unmarked) | L1210, CEM and HeLa cell lines | 3.74 |
| CNC(CC(C)C)C(=O)NC1C(=O)NC(CC(N)=O)C(=O)NC2C(=O)NC3C(=O)NC(C(=O)NC(C(=O)NCCCNC(=O)c4ccc5cc(NS(=O)(=O)c6ccccc6)ccc5c4)c4cc(O)cc(O)c4-c4cc3ccc4O)C(O)c3ccc(c(Cl)c3)Oc3cc2cc(c3OC2OC(CO)C(O)C(O)C2OC2CC(C)(N)C(O)C(C)O2)Oc2ccc(cc2Cl)C1O (centres unmarked) | L1210, CEM and HeLa cell lines | 3.72 |
| CNC(CC(C)C)C(=O)NC1C(=O)NC(CC(N)=O)C(=O)NC2C(=O)NC3C(=O)NC(C(=O)NC(C(=O)NCC(=O)Nc4ccc(C#CC5CC5)cc4)c4cc(O)cc(O)c4-c4cc3ccc4O)C(O)c3ccc(c(Cl)c3)Oc3cc2cc(c3OC2OC(CO)C(O)C(O)C2OC2CC(C)(N)C(O)C(C)O2)Oc2ccc(cc2Cl)C1O (centres unmarked) | L1210, CEM and HeLa cell lines | 3.81 |

* * *

Overview of recorded MIC for various compounds
Tested on: MRSA KS2
Test: MIC, broth microdilution, MRSA KS2
Format: cell-based, Staphylococcus aureus
Conditions: Staphylococcus aureus MRSA KS2; read-out: MIC

| compound | unit_abbreviation | MIC |
| --- | --- | --- |
| CNC(CC(C)C)C(=O)NC1C(=O)NC(CC(N)=O)C(=O)NC2C(=O)NC3C(=O)NC(C(=O)NC(C(=O)NCC(=O)Nc4ccc(C#CC5CCCC5)cc4)c4cc(O)cc(O)c4-c4cc3ccc4O)C(O)c3ccc(c(Cl)c3)Oc3cc2cc(c3OC2OC(CO)C(O)C(O)C2OC2CC(C)(N)C(O)C(C)O2)Oc2ccc(cc2Cl)C1O (stereo not shown) [Vanc-69] | µM | 0.20 |
| CCCCCc1ccc(NC(=O)CNC(=O)[C@H]2NC(=O)[C@H]3NC(=O)[C@H](NC(=O)[C@@H]4NC(=O)[C@H](CC(N)=O)NC(=O)[C@H](NC(=O)[C@@H](CC(C)C)NC)[C@H](O)c5ccc(c(Cl)c5)Oc5cc4cc(c5O[C@@H]4O[C@H](CO)[C@@H](O)[C@H](O)[C@H]4O[C@H]4C[C@](C)(N)[C@H](O)[C@H](C)O4)Oc4ccc(cc4Cl)[C@H]3O)c3ccc(O)c(c3)-c3c(O)cc(O)cc32)cc1 [Vanc-74] | µM | 0.20 |
| CN[C@H](CC(C)C)C(=O)N[C@H]1C(=O)N[C@@H](CC(N)=O)C(=O)N[C@H]2C(=O)N[C@H]3C(=O)N[C@H](C(=O)N[C@H](C(=O)NCCNC(=O)CC(c4ccccc4)c4ccccc4)c4cc(O)cc(O)c4-c4cc3ccc4O)[C@H](O)c3ccc(c(Cl)c3)Oc3cc2cc(c3O[C@@H]2O[C@H](CO)[C@@H](O)[C@H](O)[C@H]2O[C@H]2C[C@](C)(N)[C@H](O)[C@H](C)O2)Oc2ccc(cc2Cl)[C@H]1O [Vanc-47] | µM | 0.39 |
| CN[C@H](CC(C)C)C(=O)N[C@H]1C(=O)N[C@@H](CC(N)=O)C(=O)N[C@H]2C(=O)N[C@H]3C(=O)N[C@H](C(=O)N[C@H](C(=O)NCCNC(=O)/C=C/c4cccc(OC)c4)c4cc(O)cc(O)c4-c4cc3ccc4O)[C@H](O)c3ccc(c(Cl)c3)Oc3cc2cc(c3O[C@@H]2O[C@H](CO)[C@@H](O)[C@H](O)[C@H]2O[C@H]2C[C@](C)(N)[C@H](O)[C@H](C)O2)Oc2ccc(cc2Cl)[C@H]1O [Vanc-23] | µM | 0.39 |
| CN[C@H](CC(C)C)C(=O)N[C@H]1C(=O)N[C@@H](CC(N)=O)C(=O)N[C@H]2C(=O)N[C@H]3C(=O)N[C@H](C(=O)N[C@H](C(=O)NCCNC(=O)/C=C/c4ccc(Cl)cc4)c4cc(O)cc(O)c4-c4cc3ccc4O)[C@H](O)c3ccc(c(Cl)c3)Oc3cc2cc(c3O[C@@H]2O[C@H](CO)[C@@H](O)[C@H](O)[C@H]2O[C@H]2C[C@](C)(N)[C@H](O)[C@H](C)O2)Oc2ccc(cc2Cl)[C@H]1O [Vanc-20] | µM | 0.20 |
| CNC(CC(C)C)C(=O)NC1C(=O)NC(CC(N)=O)C(=O)NC2C(=O)NC3C(=O)NC(C(=O)NC(C(=O)NCC(=O)NC4c5ccccc5-c5ccccc54)c4cc(O)cc(O)c4-c4cc3ccc4O)C(O)c3ccc(c(Cl)c3)Oc3cc2cc(c3OC2OC(CO)C(O)C(O)C2OC2CC(C)(N)C(O)C(C)O2)Oc2ccc(cc2Cl)C1O (stereo not shown) [Vanc-90] | µM | 0.10 |
| CCCCCCCc1ccc(C(=O)NCCCNC(=O)C2NC(=O)C3NC(=O)C(NC(=O)C4NC(=O)C(CC(N)=O)NC(=O)C(NC(=O)C(CC(C)C)NC)C(O)c5ccc(c(Cl)c5)Oc5cc4cc(c5OC4OC(CO)C(O)C(O)C4OC4CC(C)(N)C(O)C(C)O4)Oc4ccc(cc4Cl)C3O)c3ccc(O)c(c3)-c3c(O)cc(O)cc32)cc1 (stereo not shown) [Vanc-31] | µM | 0.20 |

* * *

Tested on: human cervix carcinoma (HeLa) cells
Assay: Cytostatic activity, HeLa cell proliferation
Assay type: cell-based
Conditions: mean ± SD of three experiments; highest concentration tested 250 µM; 4 days; read-out: Toxicity (IC50) HeLa
pIC50: −log10 of the molar value.

| compound | pIC50 |
| --- | --- |
| CNC(CC(C)C)C(=O)NC1C(=O)NC(CC(N)=O)C(=O)NC2C(=O)NC3C(=O)NC(C(=O)NC(C(=O)NCCNC(=O)C=Cc4ccccc4)c4cc(O)cc(O)c4-c4cc3ccc4O)C(O)c3ccc(c(Cl)c3)Oc3cc2cc(c3OC2OC(CO)C(O)C(O)C2OC2CC(C)(N)C(O)C(C)O2)Oc2ccc(cc2Cl)C1O (stereo not drawn) | < 3.60 |
| CN[C@H](CC(C)C)C(=O)N[C@H]1C(=O)N[C@@H](CC(N)=O)C(=O)N[C@H]2C(=O)N[C@H]3C(=O)N[C@H](C(=O)N[C@H](C(=O)NCC(=O)Nc4ccc5c(c4)Cc4ccccc4-5)c4cc(O)cc(O)c4-c4cc3ccc4O)[C@H](O)c3ccc(c(Cl)c3)Oc3cc2cc(c3O[C@@H]2O[C@H](CO)[C@@H](O)[C@H](O)[C@H]2O[C@H]2C[C@](C)(N)[C@H](O)[C@H](C)O2)Oc2ccc(cc2Cl)[C@H]1O | < 3.60 |
| CN[C@H](CC(C)C)C(=O)N[C@H]1C(=O)N[C@@H](CC(N)=O)C(=O)N[C@H]2C(=O)N[C@H]3C(=O)N[C@H](C(=O)N[C@H](C(=O)NCC(=O)Nc4ccc(C)cc4)c4cc(O)cc(O)c4-c4cc3ccc4O)[C@H](O)c3ccc(c(Cl)c3)Oc3cc2cc(c3O[C@@H]2O[C@H](CO)[C@@H](O)[C@H](O)[C@H]2O[C@H]2C[C@](C)(N)[C@H](O)[C@H](C)O2)Oc2ccc(cc2Cl)[C@H]1O | < 3.60 |
